molecular target: HLA B*07 (human); assay: T2B7 HLA stabilisation assay, flow cytometry, 10/20/200 ug/ml, four assays; conditions: scale: of 3 concentrations positive, in 4 assays
TEST_READOUT: Binding results (total of four assays)
Please give only the number in your answer, with no unit.

Completed entries (count: 3):
What does the record list as Binding results (total of four assays) for RPAADGRTVM [WNVB7 0023] ?
3

Recorded Binding results (total of four assays) for PRTNTILEDN [WNVB7 3415] , please?
0

# input binder: AAKKKGASLL [WNVB7 0006] ; wanted: its Binding results (total of four assays)
1

New cases:
Query: Binding results (total of four assays); subject: PETPQGLAKI [WNVB7 3403]
0

Bench note: what Binding results (total of four assays) did AVKDELNTLL [WNVB7 0004] show?
0

Query: Binding results (total of four assays); subject: SPHRVPNYNL [WNVB7 0020]
3
